Attribution: the EternaBench riboswitch data

tested on: MS2 coat protein; assay: apparent Kd, MS2 coat protein; higher = weaker binding; RNA-MaP array; conditions: ligand present: flavin mononucleotide; designed as: OFF switch for flavin mononucleotide
So basically: apparent Kd at 20 nM or higher? That is met. Lower than 20 nM? That is not met.

Decide: is the reported value of apparent Kd for `UGAUCUGGCGGAGGAUAUAUGCCAGUAAAACUGAUAGAAGGCCGUGAUAUAACAUGAGGAUCACCCAUGUGAGCUCCUUAGCGA` equal to or greater than 20 nM?
not met

Decide: is the reported value of apparent Kd for `CGACGAUCAGAAGGAUAUUAAAUCGUCAAUCUCGUGACAUGAGGAUCACCCAUGUAGCCCGUGGUUAAGAAGGUCUUGGUUGUG` equal to or greater than 20 nM?
met

Decide: is the reported value of apparent Kd for `AGACAAAAGGAGAAGGAGGUAAAGAUAUAAAGGUGAAGUAAUGGACAUGAGGAUCACCCAUGUACCUAGGAUAUCCAGGGCGAU` equal to or greater than 20 nM?
met

Decide: is the reported value of apparent Kd for `ACCAGGCAAGGAUAUGGUUCUGUAAACAUGAGGAUCACCCAUGUAUUUAAUUCAUGUUGGCCAGAAGGUGCUUUCG` equal to or greater than 20 nM?
not met

Decide: is the reported value of apparent Kd for `GUGCACAUGAGGAUCACCCAUGUCUGUGUAUUCCUGCUACCAGAGGAUAUGGCGUGCGUAGCUUACCAGAAGGCUGGUUGUAUC` equal to or greater than 20 nM?
not met

Decide: is the reported value of apparent Kd for `CGAUUACAUGAGGAUCACCCAUGUCAGGAUAUAAUUUGCACAGCCGGGCAGGCCGUGGUUAGAAGGGACGUACA` equal to or greater than 20 nM?
not met

Decide: is the reported value of apparent Kd for `CGGGUAACCGAGAAGGACUUAAGACUACGUUAAGUAGGAUAUCGAUUUGUUACAUGAGGAUCACCCAUGUCUGGUCUUGACCGC` equal to or greater than 20 nM?
not met

###

test system: MS2 coat protein; assay: apparent Kd, MS2 coat protein; higher = weaker binding; RNA-MaP array; tryptophan 2.4 mM where present; settings: designed as: ON switch for tryptophan; no ligand
So basically: apparent Kd at 30 nM or higher? That is Satisfied. Lower than 30 nM? That is Not satisfied.

Below, 10 sequences whose answers are already recorded.
- Biopolymer Sequence: "AAAACAUGAGGAUCACCCAUGUACAUGGGUCGAGGACCGGUACGGCCGCCACUCGCCGCCCGCCCGCCCGCCACCUCUCCCGCCC"
  Assayed System: "MS2 coat protein"
  Class Assignment: "Satisfied"
- Biopolymer Sequence: "AGCCACUCGAGUGAUCCUCACGAGUGGCAACGAGGACCGGUACGGCCGCCACUCGAAUAAACAUGAGGAUCACCCAUGUAAUAAU"
  Assayed System: "MS2 coat protein"
  Class Assignment: "Satisfied"
- Biopolymer Sequence: "CACGAUUUGUCGGCCGCCACUAAGGUAACUCUUCUCACAUGAGGAUCACCCAUGUGCCCGAAGCUUAGGACCGGGAUAAUGGGUG"
  Assayed System: "MS2 coat protein"
  Class Assignment: "Satisfied"
- Biopolymer Sequence: "CUACAUUUGUAGAAACCGGUCAACAUUAUUCGAGGACCGGUACGGCCGCCACUCGUAUCAUUUGAUACAUGAGGAUCACCCAUGU"
  Assayed System: "MS2 coat protein"
  Class Assignment: "Not satisfied"
- Biopolymer Sequence: "AUAUAUACAUGAGGAUCACCCAUGUUAUUUCGAGGACCGGUACGGCCGCCACUCGAUAGAGUAGAAGUAACAUUUGUUAGAUGUA"
  Assayed System: "MS2 coat protein"
  Class Assignment: "Not satisfied"
- Biopolymer Sequence: "AGAGCAUUGACGGCCGCCACUCGUGUCACAUGAGGAUCACCCAUGUGACGGGUGAUCGCCCGGUUGAGGACCGGGUCAAUGCUCA"
  Assayed System: "MS2 coat protein"
  Class Assignment: "Not satisfied"
- Biopolymer Sequence: "AGCCACUCGAGUGAUCCUCACGAGUGGCUACGAGGACCGGUACGGCCGCCACUCGAAUUAACAUGAGGAUCACCCAUGUAAUCAC"
  Assayed System: "MS2 coat protein"
  Class Assignment: "Satisfied"
- Biopolymer Sequence: "AUAUAUACAUGAGGAUCACCCAUGUUAUUUCGAGGACCGGUACGGCCGCCACUCGAUAGAGUAGAAGUAAAUUUUAAUUCAUGUA"
  Assayed System: "MS2 coat protein"
  Class Assignment: "Not satisfied"
- Biopolymer Sequence: "ACAUGAGGAUCACCCAUGUCAUGAGGUUCACGAGGACCGGUACGGCCGCCACUCGACAUGAGGGUCACCCGUGAACGGAACACCC"
  Assayed System: "MS2 coat protein"
  Class Assignment: "Not satisfied"
- Biopolymer Sequence: "CUAAAUAUAACGGCCGCCACUUACUCAUGAGGUAACAACAUGAGGAUCACCCAUGUUUGAGGAUCAAGGACCGGGUUAUAUUUAG"
  Assayed System: "MS2 coat protein"
  Class Assignment: "Not satisfied"

Decide: is the reported value of apparent Kd for `AUUAAGGAUAUAUAGAAGGCGGAGAAGAGACGAGGACCGGUACGGCCGCCACUCGUGUUAGUUAACAUGAGGAUCACCCAUGUAA` equal to or greater than 30 nM?
Satisfied

Decide: is the reported value of apparent Kd for `AAUCAUGAAAACAUGACAUGAGGAUCACUCCGAGGACCGGUACGGCCGCCACUCGCGAGGAGGCACAUGAGGAUCACCCAUGUUA` equal to or greater than 30 nM?
Satisfied

Decide: is the reported value of apparent Kd for `AGAGCAUUGACGGCCGCCACUCAUGUCACAUGAGGAUCACCCAUGUGAUGGGUGAUAGCCCGGUUGAGGACCGGGUCAAUGCUCA` equal to or greater than 30 nM?
Not satisfied
